Source listed as ChEMBL document CHEMBL3885861.

Assign Hb to each entry below.
# Species on record: Rattus norvegicus
# experiment.notes: Open TG-GATES - Regimen: Single
# Type: toxicity, organism-based, Sprague-Dawley
# Design: regimen Single, gender Male, age 6 weeks
# study.conditions: in vivo, po, 0 mg/kg, 3 h, tissue Blood, route gavage, dose level Control
Value and unit, in that order.

## Input Entry under review: `Cn1cnc([N+](=O)[O-])c1Sc1ncnc2nc[nH]c12` . Reported Hb?
## Output 13.4 g/dL

## Input So what does the record say about Hb for `O=C1CN(/N=C/c2ccc(-c3ccc([N+](=O)[O-])cc3)o2)C(O)=N1` ?
## Output 13.4 g/dL

## Input Bench note: what Hb did CS(=O)(=O)Nc1ccc([N+](=O)[O-])cc1Oc1ccccc1 [NIMESULIDE] show?
## Output 14.1 g/dL

## Input What Hb value was documented for this compound, COc1ccc(Cl)cc1C(=O)NCCc1ccc(S(=O)(=O)NC(=O)NC2CCCCC2)cc1 [GLYBURIDE] ?
## Output 13.2 g/dL

## Input Report Hb for `O=C1NC(=O)C(c2ccccc2)(c2ccccc2)N1` please.
## Output 13.4 g/dL

## Input Entry under review: S=C=Nc1cccc2ccccc12 [1-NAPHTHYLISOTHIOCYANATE] . Reported Hb?
## Output 13.7 g/dL

====

# Organism: Rattus norvegicus
# experiment.notes: Open TG-GATES - Regimen: Daily Repeat
# Assay type: toxicity, organism-based, Sprague-Dawley
# Parameters: regimen Daily Repeat, gender Male, age 6 weeks
# study.conditions: in vivo, po, 0 mg/kg, […], tissue Plasma, route gavage, dose level Control, time 28 day
Would you mind telling me the reported AST of each entry?
Report the value in IU/L with no unit label.

## Input Item `Cc1cccc(Nc2cc(Cl)nc(SCC(=O)O)n2)c1C` has what recorded AST?
## Output 59.4

## Input Entry `O=C1NC(=O)C(c2ccccc2)(c2ccccc2)N1` has what AST?
## Output 61.8

## Input Returns the measured AST for the input molecule. Input: `C=CCO`
## Output 59.2

## Input Could you share which AST value was measured for CS(=O)(=O)Nc1ccc([N+](=O)[O-])cc1Oc1ccccc1 [NIMESULIDE] ?
## Output 61.8

## Input Field request: AST | item: COc1ccc(Cl)cc1C(=O)NCCc1ccc(S(=O)(=O)NC(=O)NC2CCCCC2)cc1 [GLYBURIDE]
## Output 60

====

I'd appreciate it if you could supply Ca values for the items below.
# Species on record: Rattus norvegicus
# experiment.notes: Open TG-GATES - Regimen: Single
# Type: toxicity, organism-based, Sprague-Dawley
# Design: regimen Single, gender Male, age 6 weeks
# study.conditions: in vivo, po, 0 mg/kg, 6 h, tissue Plasma, route gavage, dose level Control
Write the number in mg/dL without appending the unit.

## Input Entry under review: Cc1cccc(Nc2cc(Cl)nc(SCC(=O)O)n2)c1C [PIRINIXIC ACID] . Reported Ca?
## Output 10.7

## Input Which Ca reading was recorded for the molecule C=CCO [ALLYL ALCOHOL] ?
## Output 10.5

## Input Looking for the measured Ca of O=C1CN(/N=C/c2ccc(-c3ccc([N+](=O)[O-])cc3)o2)C(O)=N1 [DANTROLENE] , can you help?
## Output 10.5

## Input What value of Ca has been recorded for this entry: S=C=Nc1cccc2ccccc12 [1-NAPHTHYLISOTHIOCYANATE]
## Output 10.6

====

Provide the reported K of each item.
# Organism: Rattus norvegicus
# experiment.notes: Open TG-GATES - Regimen: Daily Repeat
# Assay type: toxicity, organism-based, Sprague-Dawley
# Parameters: regimen Daily Repeat, gender Male, age 6 weeks
# study.conditions: in vivo, po, 0 mg/kg, […], tissue Plasma, route gavage, dose level Control, time 28 day

## Input Reported K for `O=C1NC(=O)C(c2ccccc2)(c2ccccc2)N1` : what is it?
## Output 3.9 meq/L

## Input Looking for the measured K of COc1ccc(Cl)cc1C(=O)NCCc1ccc(S(=O)(=O)NC(=O)NC2CCCCC2)cc1 [GLYBURIDE] , can you help?
## Output 3.9 meq/L

## Input Consider the compound `Cn1c(=O)c2c(ncn2C)n(C)c1=O` and give its measured K.
## Output 4.1 meq/L

## Input Looking for the measured K of O=P1(N(CCCl)CCCl)NCCCO1 (stereo unspecified) [CYCLOPHOSPHAMIDE ANHYDROUS] , can you help?
## Output 4 meq/L

## Input Recorded K of COc1ccc(O)c(C(C)(C)C)c1.COc1ccc(O)cc1C(C)(C)C [BUTYLATED HYDROXYANISOLE] , please.
## Output 4 meq/L

## Input What value of K has been reported for the following compound? `Cc1cnc(NC(=O)C2=C(O)c3ccccc3S(=O)(=O)N2C)s1`
## Output 4.1 meq/L

====

# Organism: Rattus norvegicus
# experiment.notes: Open TG-GATES - Regimen: Single
# Format: toxicity, organism-based, Sprague-Dawley
# Set-up: regimen Single, gender Male, age 6 weeks
# study.conditions: in vivo, po, 0 mg/kg, 6 h, tissue Blood, route gavage, dose level Control
assay.metric: Fbg (mg/dL)
Note: unit mg/dL is implicit; provide only the numeric part.

## Input Form field: reported Fbg of COc1ccc(Cl)cc1C(=O)NCCc1ccc(S(=O)(=O)NC(=O)NC2CCCCC2)cc1 [GLYBURIDE]
## Output 228.6

## Input Please report the recorded Fbg for `O=C1NC(=O)C(c2ccccc2)(c2ccccc2)N1` .
## Output 297.4

## Input GET /values?readout=Fbg&item= `O=C1CN(/N=C/c2ccc(-c3ccc([N+](=O)[O-])cc3)o2)C(O)=N1`
## Output 205

## Input Can you share its Fbg? I mean this compound: COc1ccc(O)c(C(C)(C)C)c1.COc1ccc(O)cc1C(C)(C)C [BUTYLATED HYDROXYANISOLE]
## Output 263

## Input Name the reported Fbg value associated with the compound S=C=Nc1cccc2ccccc12 [1-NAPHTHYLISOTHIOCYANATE]
## Output 232.2

## Input Please report the recorded Fbg for `Cc1cccc(Nc2cc(Cl)nc(SCC(=O)O)n2)c1C` .
## Output 283.8

====

# Species: Rattus norvegicus
# experiment.notes: Open TG-GATES - Regimen: Single
# Format: toxicity, organism-based, Sprague-Dawley
# Set-up: regimen Single, gender Male, age 6 weeks
# study.conditions: in vivo, po, 0 mg/kg, 9 h, tissue Blood, route gavage, dose level Control
assay.metric: Eos (%)
Reply with just the number (in %).

## Input Param item = `C=CCO` ; retrieve measured Eos.
## Output 1

## Input # lookup: Eos of `Cc1cnc(NC(=O)C2=C(O)c3ccccc3S(=O)(=O)N2C)s1`
## Output 1

## Input Look up Eos for this compound: CS(=O)(=O)Nc1ccc([N+](=O)[O-])cc1Oc1ccccc1 [NIMESULIDE]
## Output 1

====

Please provide measured CRE for the entries that follow.
# Species on record: Rattus norvegicus
# experiment.notes: Open TG-GATES - Regimen: Single
# Type: toxicity, organism-based, Sprague-Dawley
# Set-up: regimen Single, gender Male, age 6 weeks
# study.conditions: in vivo, po, 0 mg/kg, 9 h, tissue Plasma, route gavage, dose level Control
Form entry: value (mg/dL) — number only.

## Input Which CRE value is on record for C=CCO [ALLYL ALCOHOL] ?
## Output 0.4

## Input May I ask what CRE has been recorded for CS(=O)(=O)Nc1ccc([N+](=O)[O-])cc1Oc1ccccc1 [NIMESULIDE] ?
## Output 0.5

## Input Please look up its CRE: O=C1CN(/N=C/c2ccc(-c3ccc([N+](=O)[O-])cc3)o2)C(O)=N1 [DANTROLENE]
## Output 0.5

====

# Organism: Rattus norvegicus
# experiment.notes: Open TG-GATES - Regimen: Daily Repeat
# Assay type: toxicity, organism-based, Sprague-Dawley
# Set-up: regimen Daily Repeat, gender Male, age 6 weeks
# study.conditions: in vivo, po, 0 mg/kg, […], tissue Plasma, route gavage, dose level Control, time 14 day
assay.metric: IP

## Input Tell me the measured IP of O=P1(N(CCCl)CCCl)NCCCO1 (stereo unspecified) [CYCLOPHOSPHAMIDE ANHYDROUS] , please.
## Output 7 mg/dL

## Input Consider the molecule shown here: `O=C1NC(=O)C(c2ccccc2)(c2ccccc2)N1` What is its recorded IP?
## Output 7.2 mg/dL

## Input State the recorded IP for this entry: `Cc1cccc(Nc2cc(Cl)nc(SCC(=O)O)n2)c1C`
## Output 7.1 mg/dL

## Input Need IP, item `Cc1cnc(NC(=O)C2=C(O)c3ccccc3S(=O)(=O)N2C)s1`
## Output 6.9 mg/dL

## Input Reported IP for `C=CCO` : what is it?
## Output 6.9 mg/dL

## Input Given the molecule CS(=O)(=O)Nc1ccc([N+](=O)[O-])cc1Oc1ccccc1 [NIMESULIDE] , what is its reported IP?
## Output 7.2 mg/dL
